assay: In vivo efficacy, biodistribution and tolerability of 225Ac-DPI-4452 in HT-29 xenograft mouse model; set-up: species or system NMRI nude mice; conditions: female, NMRI nude, mouse, kidney, iv, total radioactivity; HT-29 model, 15 kBq, 4 hours after dosing; read-out: kidney uptake
PROPERTY LABEL: tissue uptake at 4 h (%ID/g)
// note: answer is a bare numeric in %ID/g

Exam item: Form field: reported tissue uptake at 4 h of CC(C)C[C@@H]1NC(=O)[C@H](Cc2cccc(NC(=O)CCCS(N)(=O)=O)c2)NC(=O)[C@H](CC(=O)O)NC(=O)[C@H]2CCCN2C(=O)[C@H](CCC(=O)O)NC(=O)[C@@H](NC(=O)[C@H](CCC(N)=O)NC(=O)CN2CCN(C(=O)CN3CCN(CC(=O)O)CCN(CC(=O)O)CCN(CC(=O)O)CC3)CC2)CSCc2cccc(c2)CSC[C@@H](C(N)=O)NC(=O)[C@H](CO)NC(=O)[C@H](Cc2c[nH]c3ccccc23)NC(=O)[C@H]([C@@H](C)O)NC1=O [^225Ac-DPI-4452, metal not drawn]
Marked response: 7.9
